Biological target: T1, hIL-4Rα on cells (human, UniProt P24394 26-825)
T1 sequence: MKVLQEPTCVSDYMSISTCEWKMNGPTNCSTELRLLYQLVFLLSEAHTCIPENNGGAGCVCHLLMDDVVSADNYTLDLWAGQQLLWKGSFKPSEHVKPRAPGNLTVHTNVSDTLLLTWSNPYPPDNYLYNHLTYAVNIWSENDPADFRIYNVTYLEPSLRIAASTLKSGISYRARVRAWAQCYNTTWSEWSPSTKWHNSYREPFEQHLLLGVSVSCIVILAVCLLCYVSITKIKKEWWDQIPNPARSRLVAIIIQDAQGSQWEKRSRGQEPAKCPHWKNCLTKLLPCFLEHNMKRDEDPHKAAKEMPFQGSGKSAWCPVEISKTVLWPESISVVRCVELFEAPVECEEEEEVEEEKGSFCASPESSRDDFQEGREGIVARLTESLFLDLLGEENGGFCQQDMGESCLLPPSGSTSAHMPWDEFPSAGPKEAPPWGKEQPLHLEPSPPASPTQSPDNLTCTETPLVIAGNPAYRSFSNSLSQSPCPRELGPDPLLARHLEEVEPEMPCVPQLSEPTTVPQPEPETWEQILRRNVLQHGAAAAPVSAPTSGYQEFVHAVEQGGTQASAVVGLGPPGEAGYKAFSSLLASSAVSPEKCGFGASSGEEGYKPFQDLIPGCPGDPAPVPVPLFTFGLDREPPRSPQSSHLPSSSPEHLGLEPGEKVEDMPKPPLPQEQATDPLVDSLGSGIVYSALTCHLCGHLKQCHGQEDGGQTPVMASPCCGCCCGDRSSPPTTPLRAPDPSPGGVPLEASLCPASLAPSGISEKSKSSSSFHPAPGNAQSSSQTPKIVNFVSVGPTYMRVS
Experiment: cell-based or functional assay
property_name: Relative Inhibition of IL-13 induced TF-1 Proliferation IC50

- binder: "Construct 11 (mAb420) (antibody, IgG4, V domains shown, VH/VL only) VH: EVQLVESGGGLEQPGGSLRLSCAGSGFTFRDFAMTWVRQAPGKGLEWVSSISGDGSNTYYADSVKGRFTISRDNSKNTLYLQMNSLRAEDTAVYYCAKDRLSKTIRPRYYGLDVWGQGTTVTVSS VL: DIVMTQSPLSLPVTPGEPASISCRSSQSVLYSIGYNYVDWYLQKSGQSPQLLIYLGNKRASGVPDRFSGSGSGTDFTLKISRVEAEDVGFYYCMQSLQTPYTFGQGTKLEIK"
  measured: "1.72 relative to dupilumab"
- binder: "Construct 36 (mAb469) (antibody, IgG4, V domains shown, VH/VL only) VH: EVQLVESGGGLEQPGGSLRLSCAGSGFTFRDFAMTWVRQAPGKGLEWVSSISGSGGNIYYADSVKGRFTISRDNSKNTLYLQMNSLRAEDTAVYYCAKDRLSKTIRPRYYGLDVWGQGTTVTVSS VL: DIVMTQSPLSLPVTPGEPASISCRSSQSLLYSIGKNYVDWYLQKSGQSPQLLIYEGNNRASGVPDRFSGSGSGTDFTLKISRVEAEDVGFYYCMQSLTSPYTFGQGTKLEIK"
  measured: "1.25 relative to dupilumab"
- binder: "Construct 43 (mAb482) (antibody, IgG4, V domains shown, VH/VL only) VH: EVQLVESGGGLEQPGGSLRLSCAGSGFTFRDFAMTWVRQAPGKGLEWVSSISGGGGNTYYADSVKGRFTISRDNSKNTLYLQMNSLRAEDTAVYYCAKDRLSIAVRPRYYGLDVWGQGTTVTVSS VL: DIVMTQSPLSLPVTPGEPASISCTSSQSLLYSIGYNYVDWYLQKSGQSPQLLIYLGSKRASGVPDRFSGSGSGTDFTLKISRVEAEDVGFYYCMQSLTSPYTFGQGTKLEIK"
  measured: "0.941 relative to dupilumab"
